Data provenance is patent US20110038869A1.

Reported values of % residual binding for individual entries
tested_target: T1, biotinylated CD32bECDHis (human, UniProt P31994 43-223, limits assumed, biotinylated (sites not given))
T1 sequence (looked up): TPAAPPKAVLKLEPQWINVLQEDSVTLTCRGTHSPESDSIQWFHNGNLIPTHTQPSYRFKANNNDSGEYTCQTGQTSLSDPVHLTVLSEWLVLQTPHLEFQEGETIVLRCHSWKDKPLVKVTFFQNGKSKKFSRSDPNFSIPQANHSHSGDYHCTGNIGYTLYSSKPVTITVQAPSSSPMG
method_summary: competition ELISA, competitor 026
Please state the figure in %; there is no need to write the unit.

* Antibody 024 (antibody, V domains shown, also called HuMab 024) VH: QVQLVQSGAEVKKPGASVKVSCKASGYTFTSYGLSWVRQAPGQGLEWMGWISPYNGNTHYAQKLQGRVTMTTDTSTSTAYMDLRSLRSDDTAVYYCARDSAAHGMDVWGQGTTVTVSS VL: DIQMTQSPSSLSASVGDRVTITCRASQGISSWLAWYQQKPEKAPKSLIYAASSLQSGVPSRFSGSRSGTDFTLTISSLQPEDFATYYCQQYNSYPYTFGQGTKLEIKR | 56
* Antibody 038 (antibody, human IgG1, V domains shown, Human antibody; also called HuMab 038) VH: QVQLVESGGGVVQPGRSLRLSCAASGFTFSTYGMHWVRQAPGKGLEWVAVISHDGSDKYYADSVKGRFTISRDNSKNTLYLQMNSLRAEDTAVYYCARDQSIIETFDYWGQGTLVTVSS VL: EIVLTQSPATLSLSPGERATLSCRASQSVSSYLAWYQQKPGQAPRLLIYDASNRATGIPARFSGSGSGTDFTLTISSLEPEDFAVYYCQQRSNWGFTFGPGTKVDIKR | 308

Record request: % residual binding value, item Antibody 022 (antibody, V domains shown, also called HuMab 022) VH: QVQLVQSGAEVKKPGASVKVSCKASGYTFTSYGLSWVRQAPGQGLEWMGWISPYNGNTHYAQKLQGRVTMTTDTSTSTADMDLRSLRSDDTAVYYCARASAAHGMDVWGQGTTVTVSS VL: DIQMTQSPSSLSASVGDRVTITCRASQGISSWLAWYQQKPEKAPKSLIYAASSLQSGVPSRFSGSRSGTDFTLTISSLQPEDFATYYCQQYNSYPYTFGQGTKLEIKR 42
